Entries annotated with measured melting point
attributeMeasured: melting point

> print(dat)
                                   molecule  observedvalue
1  CC(=O)N1C(=O)C(C(=O)c2cccnc2)c2ccccc21 (centres undefined)  141 to 142 °C
2              O=C1c2cccc(O)c2Cc2cccc(O)c21  231 to 233 °C
3  COc1cc(N2CCN(C)CC2)ccc1-c1cnn2c(N)c(-c3cccc(Cl)c3)c(C)nc12  174 to 178 °C
4  C=C(C)c1c(C)oc2c(NC(=O)c3c(Cl)cccc3Cl)cccc12  147 to 148 °C

====

Entries annotated with measured melting point
attributeMeasured: melting point

> print(dat)
                                   compound  attributemeasured  observedvalue
1  C[C@@H]1CCN(C(=O)OC(C)(C)C)C[C@@H]1N(C)C(=O)OC(C)(C)C      melting point         118 °C
2  COC(=O)C1=C(C)NC(C)=C(C(=O)OCCN2CCN(C(c3ccccc3)c3ccccc3)CC2)C1c1cccc([N+](=O)[O-])c1 (stereo not drawn)      melting point  166 to 169 °C
3  CCCCc1nc(Cl)c(C(N)=O)n1Cc1ccc(-c2ccccc2C(=O)O)cc1      melting point  200 to 202 °C
4  CC(=O)C1CCC2C3CCC4CC(O)(c5ccccc5)CCC4(C)C3CCC12C (stereo not drawn)      melting point  182 to 184 °C
5  O=CN1CC(CCN2CC=C(c3c[nH]c4cc(Cl)ccc34)CC2)c2ccccc21 (stereo not drawn)      melting point  183 to 185 °C
6       O=C1Nc2ccc(S(=O)(=O)N3CCCC3)cc2C1=O      melting point  200 to 201 °C
7  Cc1cnc2c(c1)COP(=S)(c1ccccc1)O2 (stereo not drawn)      melting point    97 to 98 °C
8  COC(=O)C1=C(C)NC(C)C(C(=O)OC)=C1c1cc(Cl)ccc1COCc1ccccc1 (stereo not drawn)      melting point  156 to 158 °C

====

Entries annotated with measured melting point
attributeMeasured: melting point

> print(dat)
                                   compound  attributemeasured  observedvalue
1  NC(=O)c1cc(N2CCN(Cc3ccc(F)cc3)C2=O)n[nH]1      melting point  256 to 258 °C
2  O=C1C(=O)c2ccccc2C2=C1SCC1(CCN(CC(O)COc3ccc(F)cc3)CC1)O2 (stereo not given)      melting point  174 to 175 °C
3                   FC(F)(F)c1cccc(N=C=S)c1      melting point         133 °C
4                  Nc1ccc(-c2ccc(Cl)cc2)cn1      melting point  122 to 124 °C
5              Nc1ccc(C(=O)c2ccccc2)c(Cl)c1      melting point  120 to 130 °C

====

attributeMeasured: melting point

> print(dat)
                                    molecule  attributemeasured    observedvalue
 1                        O=C(CCl)Oc1ccccc1O      melting point      32 to 35 °C
 2                    Nc1ncc(Br)nc1OCC1CCCC1      melting point      78 to 79 °C
 3  O=S(=O)(Nc1ccc2c(OCc3cccc(-c4ccc(C(F)(F)F)cc4)n3)cccc2c1)C(F)(F)F      melting point    180 to 182 °C
 4  CC12CC3OC3CC1CCC1C2CCC2(C)C(O)C(N3CCC4(CC3)OCCO4)CC12 (configuration not stated)      melting point    186 to 188 °C
 5  CCCCc1nc2c(N)nc3ccccc3c2n1CCCNC(=O)Nc1ccccc1      melting point    191 to 192 °C
 6  CN(CCCNc1ncc(Cc2ccc(Br)cc2)c(=O)[nH]1)c1ccccn1      melting point    178 to 179 °C
 7  O=C1Nc2ccccc2C(c2ccccc2F)=NC1Cc1cccs1 (racemic)      melting point    189 to 191 °C
 8                 CN1CCN(c2ccc(N)cc2C#N)CC1      melting point      45 to 46 °C
 9                         COc1nc(C)c(C)cc1N      melting point      56 to 58 °C
10  CCCN(CCC)C(=O)CNc1nc(-c2ccccc2)ncc1[N+](=O)[O-]      melting point    142 to 143 °C
11  CC(C)(C)OC(=O)NC(Cc1ccccc1)C(=O)Nc1ccc2[nH]cc(CC#N)c2c1 (configuration not stated)      melting point    146 to 149 °C
12  COc1ccc(COC(=O)CC(=O)Oc2ccc(-c3cn4c(n3)sc3ccccc34)cc2)cc1      melting point    117 to 119 °C
13     COC(=O)c1ccc2c(c1)N(C1CC1)C=NS2(=O)=O      melting point    191 to 194 °C
14  OC(c1ccnc2cc(Cl)ccc12)C(F)(F)F (configuration not stated)      melting point           161 °C
15       CN1CCN(C2=Nc3cc(F)ccc3Nc3ccsc32)CC1      melting point    206 to 208 °C
16          CCCOc1ccccc1C(=O)Nc1ccccc1C(N)=O      melting point    149 to 150 °C
17  Cc1ccc2c(c1)C1c3cc4c(cc3OCC1NC2=O)OCO4 (configuration not stated)      melting point         > 250 °C
18  CCOC(=O)C(CC(=S)c1ccc(-c2ccccc2)cc1)SC(C)=O (configuration not stated)      melting point  71.5 to 72.5 °C
19  Cn1cc(S(C)=O)c(=O)c2ccc(Br)cc21 (configuration not stated)      melting point    248 to 249 °C
20  CC(C)(O)CCOc1c(-c2ccc(S(C)(=O)=O)cc2)cnn(-c2ccc(F)c(Cl)c2)c1=O      melting point    108 to 110 °C
21  Cc1ccc([N+](=O)[O-])c(Oc2cc(C(F)(F)F)nn2C)c1      melting point      88 to 90 °C
22  CCOC(=O)n1c(C)c(Cc2ccc(Cl)cc2Cl)c2nc(C#N)ccc21      melting point    112 to 113 °C
23          O=C(O)C#Cc1ccc(-c2ccc(Cl)cc2)cn1      melting point           210 °C
24  Cc1ccc(S(=O)(=O)OCC(=O)C(=NO)C(=O)OC(C)(C)C)cc1      melting point    106 to 108 °C
25  COc1ccc(C(=O)c2cc(C(=O)c3ccc(OC)cc3)cc(C(=O)c3ccc(OC)cc3)c2)cc1      melting point    179 to 183 °C
26  O=c1n(CCCF)nnn1-c1cc(Oc2ccc(O)cc2)c(Cl)cc1F      melting point    157 to 159 °C
27  CC(C)(C)OC(=O)N(Cc1ccccc1)C1CN(C(c2ccccc2)c2ccccc2)C1      melting point    117 to 118 °C
28  O=C(c1ccc(Cl)cc1)C(Oc1cccc(Cl)n1)n1cncn1 (configuration not stated)      melting point           162 °C
29  O=C1C[C@@H]2[C@@H](CC[C@H](CCc3ccccc3)OC3CCCCO3)[C@H](OC(=O)c3ccc(-c4ccccc4)cc3)C[C@@H]2O1 (some centres not stated)      melting point    103 to 105 °C
30              CNc1nc(Cl)nc2cc(OC)c(OC)cc12      melting point    216 to 217 °C
31     NC(=O)c1cc2c(Oc3ccc(Cl)c(F)c3)cncc2s1      melting point    227 to 228 °C
32           Nc1ccc(OCC2CCN(c3ccncc3)CC2)cc1      melting point    207 to 209 °C

====

Entries annotated with measured melting point
attributeMeasured: melting point

> print(dat)
                                    molecule  attributemeasured  observedvalue
 1               CC(=O)CCCCCCCc1ccc(O)c(O)c1      melting point    73 to 75 °C
 2  CON(C(=O)C1=C(O)C(=O)N(C)C1)C(C)c1ccc(F)cc1 (stereo not drawn)      melting point  136 to 138 °C
 3  COC(=O)c1cccc(Nc2nc(N)c(C(=O)c3ccccc3OC)s2)c1      melting point  214 to 215 °C
 4             Cc1ccc(Cl)cc1N1C(=O)CN(C)C1=S      melting point  132 to 134 °C
 5             CN(C)C=Nc1ccc(-c2c[nH]cn2)cc1      melting point  141 to 142 °C
 6  Cc1cc(-n2ccnc2)c2cccc(OCc3c(Cl)ccc(S(=O)(=O)N4CCC[C@H]4C(=O)NCC4CCN(C(=O)c5cccnc5)CC4)c3Cl)c2n1      melting point         109 °C
 7                  ClCCCOc1ccc(-c2nccs2)cc1      melting point    72 to 75 °C
 8  Cc1nc(C=CNC(=O)c2cccc(C(F)(F)F)c2)n[nH]1      melting point  153 to 154 °C
 9   CCOC(=O)CSc1nc(-c2ccccc2)c(-c2ccccc2)o1      melting point    53 to 55 °C
10                  CC(C)(C)OC(=O)c1cc[nH]c1      melting point    82 to 84 °C
11             O=C1O[C@@H](CO)CN1c1cccc(F)c1      melting point  106 to 108 °C
12  COc1ccc(-n2c(-c3ccc(N(C)C)cc3)nnc2C(C)O)cc1 (stereo not drawn)      melting point         190 °C
13  CC1(c2ccccc2Cl)C(=O)Nc2ccc(Cl)cc21 (stereo not drawn)      melting point         185 °C
14  O=C1c2cccc([N+](=O)[O-])c2C(=O)N1CCCCN1C(=O)c2cccc([N+](=O)[O-])c2C1=O      melting point         245 °C
15  CC(C)(CCl)C(=O)C(Oc1ccc(-c2ccc(Cl)cc2)cc1)n1ccnc1 (stereo not drawn)      melting point    97 to 99 °C
16              COCCOc1ccc2cc3ccccc3cc2c1C=O      melting point  114 to 117 °C
17  Cc1cc(C)nc(NC(=O)C(N)Cc2ccccc2)c1 (stereo not drawn)      melting point          97 °C
18  CCCCCCCCCCCCCCCCOc1cc(NS(=O)(=O)c2cc(N)ccc2OCCOC)c(O)cc1C      melting point  142 to 144 °C
19  CCC(C)n1ncn(-c2ccc(N3CCN(c4ccc(O)cc4)CC3)cn2)c1=O (stereo not drawn)      melting point  144 to 145 °C
20  O=C1c2ccccc2-c2csc(N3C(=O)c4ccccc4C3=O)c21      melting point  197 to 199 °C
21  CCCCC1(O)CCN(C(=O)C(c2ccccc2)n2cnc3[nH]ncc3c2=S)CC1 (stereo not drawn)      melting point   98 to 102 °C
22   Cc1cc(Oc2ccc([N+](=O)[O-])c(F)c2)n[nH]1      melting point    80 to 83 °C
23  FC(F)(F)Sc1ccc(C=Cc2nc(CNc3ccc(CCCCn4ccnn4)cc3)co2)cc1      melting point    76 to 78 °C
24        O=S(=O)(c1ccccc1)n1ccc2c(Cl)ncnc21      melting point  163 to 167 °C
25  CCN(Cc1cc(Br)ccc1OCC1CC1)c1ccc(C(=O)O)nn1      melting point    73 to 80 °C
26  COc1ccc(OC(Cc2ccc(OCCNC(=O)c3ccc(-c4ccccn4)cc3)cc2)C(=O)O)cc1 (stereo not drawn)      melting point  67.5 to 70 °C
27  COC(=O)[C@@H](OS(=O)(=O)c1ccc(C)cc1)[C@H](O)c1ccc(F)cc1      melting point  122 to 124 °C
28  CCCCc1ccc(CCCCSCc2cccc(/C=C/c3cccc(NC(=O)CC(CC)(CC)C(=O)O)c3)n2)cc1      melting point  150 to 151 °C
